Hey, just so you know, these numbers are from PubChem BioAssay (NCATS).

System: PC15
experiment: qHTS profiling for inhibitors of Plasmodium falciparum proliferation (AID 504749); also: nearly all actives have a fitted effect of over 60% in size
experimental_parameters: P. falciparum in erythrocytes, SYBR Green DNA, 72 h; series mostly up to 28.7 µM
Inconclusive results are not listed. Activity calls are given as the source filed them. Calls follow the shape of the dose curve; as a rule, active = well fitted inhibition curve with a large enough effect; inconclusive = small, poorly fitted or top-dose-only effect; inactive = flat fitted curve, though single readings scatter.
Outcome field: choose from active, inactive

Query: Look up the recorded call for `Cc1c(C)n(Cc2ccccc2)c2ccc(C(=O)OCCN(C)C)cc12` in this test.
Response: inactive

Query: Now consider `c1ccc(OCc2ccc(CCCN3CCOCC3)cc2)cc1` and answer again.
Response: inactive

Query: Now consider `C=CCc1ccc(O)c(OC)c1` and answer again.
Response: inactive

Query: Now consider COc1cccc(CCc2ccccc2OCC(CN(C)C)OC(=O)CCC(=O)O)c1 (stereo not given) and answer again.
Response: active

Query: Now consider `CCN1CCN(c2cc3c(cc2F)c(=O)c(C(=O)O)cn3C2CC2)CC1` and answer again.
Response: inactive

Query: Now consider `O=C1CCC(c2ccc(-n3ccnc3)cc2)=NN1` and answer again.
Response: inactive

Query: Now consider `O=C1c2ccccc2C(=O)C1c1ccccc1` and answer again.
Response: inactive

Query: Now consider CCCCN1CCCC1C(=O)Nc1c(C)cc(C)cc1C (stereo not given) and answer again.
Response: inactive

Query: Now consider `CCN(CCCc1ccccc1)CCCc1ccccc1` and answer again.
Response: inactive

Query: Now consider `Oc1ccc(Cl)c2cccnc12` and answer again.
Response: inactive

----------
experiment: qHTS of pediatric cancer cell lines to identify multiple opportunities for drug repurposing: Primary screen for NB1643 cells (AID 1347099); also: nearly all actives have a fitted effect of over 50% in size
experimental_parameters: NB1643 neuroblastoma viability, CellTiter-Glo luminescence, 48 h; series mostly up to 46 µM
Records with an inconclusive call do not appear. Activity calls are given as the source filed them. Calls come from the whole dose curve; as a rule, active = well fitted cell-killing curve with a large enough effect; inconclusive = small, poorly fitted or top-dose-only effect; inactive = no such curve, though single readings can be large or run the other way.
endpoint_name: outcome

c1ccc(OCc2ccc(CCCN3CCOCC3)cc2)cc1 : inactive
CN=C(NC#N)Nc1ccc(C2=NNC(=O)CC2C)cc1 (stereo not given) : inactive
CCOC(=O)n1ccn(C)c1=S : inactive
C[C@]12CCC(=O)C=C1CC[C@H]1[C@@H]3CC[C@](O)(C(=O)CO)[C@@]3(C)C[C@H](O)[C@@]12F : inactive

Turning now to a further record.
Query: Data request, read-out outcome, for C[C@H]1[C@H](NC(=O)/C(=N/OC(C)(C)C(=O)O)c2csc(N)n2)C(=O)N1S(=O)(=O)O (stereo in doubt)
Response: inactive

----------
experiment: qHTS of pediatric cancer cell lines to identify multiple opportunities for drug repurposing: Primary screen for NB1643 cells (AID 1347099); also: nearly all actives have a fitted effect of over 50% in size; also: potency is read from the fitted curve at half-maximal effect
experimental_parameters: NB1643 neuroblastoma viability, CellTiter-Glo luminescence, 48 h; series mostly up to 46 µM
Inconclusive results are not listed. The source made the active and inactive calls. Calls follow the shape of the dose curve; as a rule, active = well fitted cell-killing curve with a large enough effect; inconclusive = small, poorly fitted or top-dose-only effect; inactive = no such curve, though single readings can be large or run the other way.
endpoint_name: Potency

COCc1c(C(C)C)nc(C(C)C)c(/C=C/[C@@H](O)C[C@@H](O)CC(=O)O)c1-c1ccc(F)cc1 : 1500 nM (active)
Cc1ccc(Nc2c(F)cccc2Cl)c(CC(=O)O)c1 : inactive
CC1=C(C(=O)O)N2C(=O)[C@@H](NC(=O)[C@H](N)c3ccc(O)cc3)[C@H]2SC1 : inactive
C[C@H](CCC(=O)O)[C@H]1CC[C@H]2[C@@H]3C(=O)C[C@@H]4CC(=O)CC[C@]4(C)[C@H]3CC(=O)[C@]12C : inactive
